These measurements were taken from the supplement of paper PMC10567573.

B1: ZBTB22 (parent)
chain: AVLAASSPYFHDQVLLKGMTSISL

Variants of: B1
assayText: protein stability index of a GFP-peptide fusion (GPS, HEK-293T) (PSI 1-6); higher = more stable;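 further: lentivirally expressed fusions sorted by FACS into six bins by GFP to DsRed ratio, PSI derived from sequencing read proportions per bin multiplied by bin number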
conditionSummary: c terminus: a fixed tail appended
measuredProperty: protein stability index

The following variants have reported results that may help.
>>> observedmeasurement("S23W")
2.97
>>> observedmeasurement("S7W")
2
>>> observedmeasurement("D12T")
2.95

(Q) For the variant shown here, `K17P` , give the reported protein stability index.
(A) 2.05

(Q) Entry `L3C` please
(A) 2.92

(Q) Entry `L24H` please
(A) 1.95

(Q) Entry `Y9N` please
(A) 2.96

(Q) Entry `A4K` please
(A) 2.92

(Q) Entry `S7L` please
(A) 2.91

(Q) Entry `V2K` please
(A) 1.97
